Listed next: entries and their corresponding pIC50.
Molecular target: full length mouse TREX1 (Mus musculus, UniProt Q91XB0)
Construct: N-terminally His-Tev tagged full length mouse TREX1; made in house; host or cells: E. coli
Sequence (Q91XB0 1-314): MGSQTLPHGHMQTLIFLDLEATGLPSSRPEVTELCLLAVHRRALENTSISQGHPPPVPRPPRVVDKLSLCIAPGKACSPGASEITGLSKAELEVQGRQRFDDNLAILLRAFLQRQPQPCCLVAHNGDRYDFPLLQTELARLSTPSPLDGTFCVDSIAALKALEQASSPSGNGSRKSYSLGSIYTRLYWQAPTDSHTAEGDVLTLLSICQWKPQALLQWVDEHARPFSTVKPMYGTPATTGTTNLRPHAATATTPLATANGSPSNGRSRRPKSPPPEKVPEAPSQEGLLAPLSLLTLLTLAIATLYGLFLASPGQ
Assay: mTREX1 Biochemical Assay (fluorescence, dsDNA substrate degradation)
Conditions: biochemical, read-out: mTREX1 IC50
pIC50: −log10 of the molar value.

compound	measured-target	pIC50
CC(c1nc(C(=O)Nc2cnoc2)c(O)c(=O)n1C)C(c1cc(F)ccc1Cl)c1cn(C)nc1C#N (single isomer, unassigned) [Example 89 D1E1]	full length mouse TREX1 (Mus musculus, UniProt Q91XB0)	< 8.00
CC(c1nc(C(=O)Nc2cnoc2)c(O)c(=O)n1C)C(c1cnn(CC2COC2)c1)c1cc(F)ccc1Cl (single isomer, unassigned) [Example 94 D1E1]	full length mouse TREX1 (Mus musculus, UniProt Q91XB0)	8.00 to 9.00
CC(c1nc(C(=O)Nc2cnoc2)c(O)c(=O)n1C)C(c1cnn(C)c1)c1cc(F)c(F)cc1Cl (single isomer, unassigned) [Example 28 D1E2]	full length mouse TREX1 (Mus musculus, UniProt Q91XB0)	< 8.00
Cc1ccn(C(c2cc(F)ccc2Cl)C(C)c2nc(C(=O)Nc3cnoc3)c(O)c(=O)n2C)n1 (single isomer, unassigned) [Example 146 D1E2]	full length mouse TREX1 (Mus musculus, UniProt Q91XB0)	< 8.00

Please fill in: pIC50 reported for Cc1nn(C)cc1C(c1cc(F)ccc1C#N)C(c1nc(C(=O)Nc2cnoc2)c(O)c(=O)n1C)C(F)(F)F (single isomer, unassigned) [Example 42 D2E1] = < 8.00
